Numbers sourced from ChEMBL document CHEMBL1909294.

# Tested on: Hepatotoxicity
# condition.context: Liver
Please respond with reported HepSE_liver function tests abnormal for every item in the list.
Reply: number alone, nothing else.

Need HepSE_liver function tests abnormal of CC(C[N+](C)(C)C)OC(N)=O (stereo unspecified) , thanks.
0

Need HepSE_liver function tests abnormal of Cc1ccc(-c2cc(C(F)(F)F)nn2-c2ccc(S(N)(=O)=O)cc2)cc1 , thanks.
1

Need HepSE_liver function tests abnormal of CN(C)C(=N)N=C(N)N , thanks.
1

Need HepSE_liver function tests abnormal of CC(=O)OCC[N+](C)(C)C , thanks.
0

Need HepSE_liver function tests abnormal of Cc1cccc(C)c1OCC(C)N (stereo unspecified) , thanks.
1

Need HepSE_liver function tests abnormal of CC[C@H]1OC(=O)[C@H](C)C(=O)[C@H](C)[C@@H](O[C@@H]2O[C@H](C)C[C@H](N(C)C)[C@H]2O)[C@](C)(OC)C[C@@H](C)C(=O)[C@H](C)[C@H]2N(CCCCn3cnc(-c4cccnc4)c3)C(=O)O[C@]12C , thanks.
1

Need HepSE_liver function tests abnormal of O=P(O)(O)O , thanks.
0

Need HepSE_liver function tests abnormal of CCCN[C@H]1CCc2nc(N)sc2C1 [PRAMIPEXOLE] , thanks.
0

Need HepSE_liver function tests abnormal of COc1cc([C@@H]2c3cc4c(cc3[C@@H](O[C@@H]3O[C@@H]5CO[C@@H](C)O[C@H]5[C@H](O)[C@H]3O)[C@H]3COC(=O)[C@H]23)OCO4)cc(OC)c1O [ETOPOSIDE] , thanks.
0

Need HepSE_liver function tests abnormal of CN1CCC[C@H]1c1cccnc1 , thanks.
0

Need HepSE_liver function tests abnormal of N[C@@H]1C[C@H]1c1ccccc1.N[C@H]1C[C@@H]1c1ccccc1 , thanks.
0

Need HepSE_liver function tests abnormal of CC(=O)[C@@]1(O)CC[C@H]2[C@@H]3C[C@H](C)C4=CC(=O)CC[C@]4(C)[C@H]3CC[C@@]21C , thanks.
0

Need HepSE_liver function tests abnormal of Cc1cccc(Nc2ccccc2C(=O)O)c1C , thanks.
0

Need HepSE_liver function tests abnormal of COc1cc(Br)c(C[N+]2(CCOCCC3CCC4CC3C4(C)C)CCOCC2)cc1OC.[Br-] (stereo unspecified) [PINAVERIUM BROMIDE] , thanks.
0

Need HepSE_liver function tests abnormal of NNc1nncc2ccccc12 [HYDRALAZINE] , thanks.
0

Need HepSE_liver function tests abnormal of CC(C)(C)NCC(O)c1ccc(O)c(CO)c1 (stereo unspecified) , thanks.
0

* * *

readout: HepSE_hepatitis

Lookup: HepSE_hepatitis / Hepatotoxicity / CC(C)(C)NCC(O)c1ccc(O)c(CO)n1 (stereo not drawn)
0

Lookup: HepSE_hepatitis / Hepatotoxicity / CN(C)CCOC(c1ccc(Cl)cc1)c1ccccn1 (stereo not drawn)
0

Lookup: HepSE_hepatitis / Hepatotoxicity / O=C(O)c1cc(/N=N/c2ccc(S(=O)(=O)Nc3ccccn3)cc2)ccc1O
1

Lookup: HepSE_hepatitis / Hepatotoxicity / CN1C(CSCC(F)(F)F)Nc2cc(Cl)c(S(N)(=O)=O)cc2S1(=O)=O (stereo not drawn) [POLYTHIAZIDE]
0

Lookup: HepSE_hepatitis / Hepatotoxicity / N=C(N)NCCN1CCCCCCC1
0

Lookup: HepSE_hepatitis / Hepatotoxicity / CNC1=Nc2ccc(Cl)cc2C(c2ccccc2)=[N+]([O-])C1 [CHLORDIAZEPOXIDE]
0

Lookup: HepSE_hepatitis / Hepatotoxicity / NS(=O)(=O)c1cc(C2(O)NC(=O)c3ccccc32)ccc1Cl (stereo not drawn)
0

Lookup: HepSE_hepatitis / Hepatotoxicity / CN1CCN(C(=O)OC2c3nccnc3C(=O)N2c2ccc(Cl)cn2)CC1 (stereo not drawn)
1
